- Test system: HOP-92 NSCLC
- protocol_notes: NCI tumour cell line growth inhibition, 48 h
Form field: TGI (one value per entry).

[[record]]
compound = "O=C(/C=C/c1ccc(O)cc1)c1cc(Cl)ccc1O"
measured_value = "> 100 µM"

[[record]]
compound = "Fc1ccc(-c2c(-c3ccncc3)[nH]c3nccnc23)cc1"
measured_value = "> 25 µM"

[[record]]
compound = "CC1(C)CC(N2CCN(C3CC(C)(C)NC(C)(C)C3)CC2)CC(C)(C)N1"
measured_value = "> 100 µM"

[[record]]
compound = "NS(=O)(=O)c1nnc(NS(=O)(=O)c2ccc(Cl)cc2)s1"
measured_value = "> 100 µM"


Now consider the entry below.
Exercise: Find the recorded TGI belonging to C=C(C)CC(C)(c1cc2ccccc2n1C)N1CCOCC1 (stereo not given) and report it.
Solution: > 100 µM

This collection of values is drawn from PubChem BioAssay (NCI).
